Target: T1, human Dectin-1 (biosensor tests of Tables 3, 4A and 9; construct not stated) (human, UniProt Q9BXN2 66-247, limits assumed)
T1 construct: also called hDectin-1
T1 sequence (looked up): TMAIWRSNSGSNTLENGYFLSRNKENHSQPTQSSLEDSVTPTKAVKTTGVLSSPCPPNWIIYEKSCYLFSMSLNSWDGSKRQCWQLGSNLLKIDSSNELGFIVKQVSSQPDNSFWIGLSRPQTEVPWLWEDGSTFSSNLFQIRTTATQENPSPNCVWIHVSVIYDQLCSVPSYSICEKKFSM
Test: Octet response; also: time not given here
endpoint label: X = 340
When you answer, write just the number.

Please give measured X = 340 of the following entry: 2M24A.1.1 hFab (Fab, V domains shown, Fab; also called 2M24.1.1) VH: QVQLVQSGAEVKKPGASVKVSCKSSGYTFTAYYIHWVRQAPGQGLEWMGWINPNSGDTNYAQKFQGRITMTRDTSISTAYLELSRLRSDDTAVFYCARNSGSYSFGYWGQGTLVTVSS VL: DIQMTQSPSSVSASVGDRVTITCRASQGISSWLAWYQQKPGKAPKLLIFGASSLQSGVPSRFSGSGSGTDFTLTVSSLQPEDFATYYCQQAASFPFTFGPGTKVDIE
0.305

Please give measured X = 340 of the following entry: 2M24A.1.10 hFab (Fab, V domains shown, Fab; also called 2M24.1.10) VH: QVQLVQSGAEVKKPGASVKVSCKSSGYTFTDYYIHWVRQAPGQGLEWMGWINPNSGDTNYAQKFQGRITMTRDTSISTAYLELSRLRSDDTAVFYCARNSGSYSFGYWGQGTLVTVSS VL: DIQMTQSPSSVSASVGDRVTITCRASQGISSWLAWYQQKPGKAPKLLIFGASSLQSGVPSRFSGSGSGTDFTLTVSSLQPEDFATYYCQQAFSFPFTFGPGTKVDIE
0.49

Please give measured X = 340 of the following entry: 2M24A.1.5 hFab (Fab, V domains shown, Fab; also called 2M24.1.5) VH: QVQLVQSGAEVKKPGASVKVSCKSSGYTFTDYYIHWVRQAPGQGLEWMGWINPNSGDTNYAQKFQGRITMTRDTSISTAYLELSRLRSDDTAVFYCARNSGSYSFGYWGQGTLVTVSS VL: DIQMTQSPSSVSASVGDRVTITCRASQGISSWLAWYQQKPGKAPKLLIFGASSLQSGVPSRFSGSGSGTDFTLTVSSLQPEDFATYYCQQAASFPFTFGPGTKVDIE
0.3

Please give measured X = 340 of the following entry: 2M24A.1.4 hFab (Fab, V domains shown, Fab; also called 2M24.1.4) VH: QVQLVQSGAEVKKPGASVKVSCKSSGYTFTDYYIHWVRQAPGQGLEWMGWINPNSGDTNYAQKFQGRITMTRDTSISTAYLELSRLRSDDTAVFYCARNSGSASFGYWGQGTLVTVSS VL: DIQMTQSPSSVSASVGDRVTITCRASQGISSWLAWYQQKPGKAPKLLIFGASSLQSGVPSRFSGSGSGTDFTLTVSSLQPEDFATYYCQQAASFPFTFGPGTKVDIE
0

Please give measured X = 340 of the following entry: 2M24A.1.11 hFab (Fab, V domains shown, Fab; also called 2M24.1.11) VH: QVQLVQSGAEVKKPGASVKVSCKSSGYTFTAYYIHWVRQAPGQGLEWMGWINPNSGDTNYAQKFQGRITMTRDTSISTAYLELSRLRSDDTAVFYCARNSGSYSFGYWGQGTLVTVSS VL: DIQMTQSPSSVSASVGDRVTITCRASQGISSWLAWYQQKPGKAPKLLIFGASSLQSGVPSRFSGSGSGTDFTLTVSSLQPEDFATYYCQQAYSFPFTFGPGTKVDIE
0.499

Please give measured X = 340 of the following entry: 2M24A.1.25 (Fab, V domains shown, Fab; also called 2M24.1.25) VH: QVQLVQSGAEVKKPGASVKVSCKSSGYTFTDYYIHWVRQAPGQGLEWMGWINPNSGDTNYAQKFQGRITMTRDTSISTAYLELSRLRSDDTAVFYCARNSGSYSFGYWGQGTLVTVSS VL: DIQMTQSPSSVSASVGDRVTITCRASQGISSWLAWYQQKPGKAPKLLIFGASSLQSGVPSRFSGSGSGTDFTLTVSSLQPEDFATYYCQQAYAFPFTFGPGTKVDIE
0.475

Please give measured X = 340 of the following entry: 2M24A.1.28 (Fab, V domains shown, Fab; also called 2M24.1.28) VH: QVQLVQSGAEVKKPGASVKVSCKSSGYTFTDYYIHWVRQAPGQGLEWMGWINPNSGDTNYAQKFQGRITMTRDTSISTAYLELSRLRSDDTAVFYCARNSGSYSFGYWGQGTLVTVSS VL: DIQMTQSPSSVSASVGDRVTITCRASQGISSWLAWYQQKPGKAPKLLIFGASSLQSGVPSRFSGSGSGTDFTLTVSSLQPEDFATYYCQQAYSFPATFGPGTKVDIE
0.309

Provenance of the data: patent US20250230247A1
